Where do the numbers come from? From patent US11091749B2.

Consider the following molecules and their measured Tm readings.
Experiment: Thermostability by differential scanning fluorimetry
Type: physicochemical
Conditions: SYPRO Orange, PBS

molecule	readout-units	Tm
Flex 1: lysostaphin variant I41E, I99Q, S122D (SEQ ID NO:32) (protein) AATHEHSAQWLNNYKKGYGYGPYPLGINGGMHYGVDFFMNEGTPVHAISSGKIVEAGWSNYGGGNQIGLIENDGVHRQWYMHLSKYNVKVGDYVKAGQIIGWSGSTGYSTAPHLHFQTMVNDFGNPTAQDPMPFLKSAGYGKAGGTVTPTPNTGWKTNKYGTLYKSESASFTPNTDIITRTTGPFRSMPQSGVLKAGQTIHYDEVMKQDGHVWVGYTGNSGQRIYLPVRTWNKSTNTLGVLWGTIK	°C	55.4
Flex 5: lysostaphin variant K46H, I99Q, N121G, S122D (protein, UniProt P10547 248-493, looked up, variant K46H I99Q N121G S122D) Lysostaphin: AATHEHSAQWLNNYKKGYGYGPYPLGINGGMHYGVDFFMNIGTPVHAISSGKIVEAGWSNYGGGNQIGLIENDGVHRQWYMHLSKYNVKVGDYVKAGQQIGWSGSTGYSTAPHLHFQRMVGDFSNSTAQDPMPFLKSAGYGKAGGTVTPTPNTGWKTNKYGTLYKSESASFTPNTDIITRTTGPFRSMPQSGVLKAGQTIHYDEVMKQDGHVWVGYTGNSGQRIYLPVRTWNKSTNTLGVLWGTIK	°C	55.7
Flex 10: lysostaphin variant N12G, I41E, N121G, S122D (protein, UniProt P10547 248-493, looked up, variant N12G I41E N121G S122D) Lysostaphin: AATHEHSAQWLGNYKKGYGYGPYPLGINGGMHYGVDFFMNEGTPVKAISSGKIVEAGWSNYGGGNQIGLIENDGVHRQWYMHLSKYNVKVGDYVKAGQIIGWSGSTGYSTAPHLHFQRMVGDFSNSTAQDPMPFLKSAGYGKAGGTVTPTPNTGWKTNKYGTLYKSESASFTPNTDIITRTTGPFRSMPQSGVLKAGQTIHYDEVMKQDGHVWVGYTGNSGQRIYLPVRTWNKSTNTLGVLWGTIK	°C	57.5
Flex 8: lysostaphin variant N12G, I41E, L83M, I99Q, N121G, S122D (protein, UniProt P10547 248-493, looked up, variant N12G I41E L83M I99Q N121G S122D) Lysostaphin: AATHEHSAQWLGNYKKGYGYGPYPLGINGGMHYGVDFFMNEGTPVKAISSGKIVEAGWSNYGGGNQIGLIENDGVHRQWYMHMSKYNVKVGDYVKAGQQIGWSGSTGYSTAPHLHFQRMVGDFSNSTAQDPMPFLKSAGYGKAGGTVTPTPNTGWKTNKYGTLYKSESASFTPNTDIITRTTGPFRSMPQSGVLKAGQTIHYDEVMKQDGHVWVGYTGNSGQRIYLPVRTWNKSTNTLGVLWGTIK	°C	52.9
Flex 9: lysostaphin variant N12G, I41E, L83M, K95E, I99Q, N121G, S122D, S124G (protein, UniProt P10547 248-493, looked up, variant N12G I41E L83M K95E I99Q N121G S122D S124G) Lysostaphin: AATHEHSAQWLGNYKKGYGYGPYPLGINGGMHYGVDFFMNEGTPVKAISSGKIVEAGWSNYGGGNQIGLIENDGVHRQWYMHMSKYNVKVGDYVEAGQQIGWSGSTGYSTAPHLHFQRMVGDFGNSTAQDPMPFLKSAGYGKAGGTVTPTPNTGWKTNKYGTLYKSESASFTPNTDIITRTTGPFRSMPQSGVLKAGQTIHYDEVMKQDGHVWVGYTGNSGQRIYLPVRTWNKSTNTLGVLWGTIK	°C	53.0
Flex 6: lysostaphin variant N12G, I41E, I99Q, N121G, S122D (protein, UniProt P10547 248-493, looked up, variant N12G I41E I99Q N121G S122D) Lysostaphin: AATHEHSAQWLGNYKKGYGYGPYPLGINGGMHYGVDFFMNEGTPVKAISSGKIVEAGWSNYGGGNQIGLIENDGVHRQWYMHLSKYNVKVGDYVKAGQQIGWSGSTGYSTAPHLHFQRMVGDFSNSTAQDPMPFLKSAGYGKAGGTVTPTPNTGWKTNKYGTLYKSESASFTPNTDIITRTTGPFRSMPQSGVLKAGQTIHYDEVMKQDGHVWVGYTGNSGQRIYLPVRTWNKSTNTLGVLWGTIK	°C	54.1
